compounds and their reported MEC (minimum effective concentration)
Target: recombinant guanylate cyclase reporter cell line (Rattus norvegicus, UniProt P19686+P20595)
Construct: expressed in transfected cells
Sequence (P19686 1-690): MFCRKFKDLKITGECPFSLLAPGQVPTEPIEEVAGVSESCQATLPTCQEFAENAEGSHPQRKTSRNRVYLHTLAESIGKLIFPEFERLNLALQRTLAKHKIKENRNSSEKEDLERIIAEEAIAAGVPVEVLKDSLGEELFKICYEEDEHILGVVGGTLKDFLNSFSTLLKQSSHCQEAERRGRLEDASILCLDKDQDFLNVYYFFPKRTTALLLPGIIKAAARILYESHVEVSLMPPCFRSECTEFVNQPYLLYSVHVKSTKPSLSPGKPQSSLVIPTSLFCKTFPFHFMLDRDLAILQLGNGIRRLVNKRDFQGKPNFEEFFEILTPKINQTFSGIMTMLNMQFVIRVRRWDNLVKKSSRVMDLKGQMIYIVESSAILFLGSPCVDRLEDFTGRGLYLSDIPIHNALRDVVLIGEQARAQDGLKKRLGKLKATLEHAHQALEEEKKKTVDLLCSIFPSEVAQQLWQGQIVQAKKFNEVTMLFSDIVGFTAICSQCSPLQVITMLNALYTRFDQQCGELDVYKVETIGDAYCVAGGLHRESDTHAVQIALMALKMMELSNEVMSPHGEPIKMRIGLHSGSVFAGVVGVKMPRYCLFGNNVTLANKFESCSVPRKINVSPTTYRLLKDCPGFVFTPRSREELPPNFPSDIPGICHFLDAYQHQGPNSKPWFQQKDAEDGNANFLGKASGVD
Sequence (P20595 1-619): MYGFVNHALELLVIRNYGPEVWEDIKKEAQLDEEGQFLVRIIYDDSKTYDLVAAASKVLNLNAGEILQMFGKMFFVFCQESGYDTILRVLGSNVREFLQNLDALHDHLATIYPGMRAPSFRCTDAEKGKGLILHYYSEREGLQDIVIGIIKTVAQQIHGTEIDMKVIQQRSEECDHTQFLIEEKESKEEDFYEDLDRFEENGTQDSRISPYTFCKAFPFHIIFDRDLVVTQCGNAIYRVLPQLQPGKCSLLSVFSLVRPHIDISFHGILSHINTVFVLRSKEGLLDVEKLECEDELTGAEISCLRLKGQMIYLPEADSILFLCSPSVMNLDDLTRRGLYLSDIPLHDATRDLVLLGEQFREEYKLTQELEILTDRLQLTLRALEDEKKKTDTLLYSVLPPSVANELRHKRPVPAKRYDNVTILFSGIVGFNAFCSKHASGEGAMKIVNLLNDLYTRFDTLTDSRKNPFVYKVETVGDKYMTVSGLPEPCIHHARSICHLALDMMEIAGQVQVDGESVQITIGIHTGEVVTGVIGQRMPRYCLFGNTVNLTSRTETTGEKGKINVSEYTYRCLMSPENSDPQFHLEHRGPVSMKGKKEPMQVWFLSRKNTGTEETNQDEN
Assay: Effect on a recombinant guanylate cyclase reporter cell line (B-2)
Type: cell-based
Settings: in some cases mean values for individual determinations
The reply should consist of the numeric value with the unit placed after it.

(Q) Supply measured MEC (minimum effective concentration) of COc1ccc2c(c1)C(NC(=O)c1c(C)nn3c(OCc4c(F)cccc4F)cc(C)cc13)CCN2 (racemic) in your reply.
(A) 1.0 µM

(Q) Please report MEC (minimum effective concentration) for the following compound: Cc1cc(OCc2c(F)cccc2F)n2nc(C3CC3)c(C(=O)NCC(C)(N)CC(F)F)c2c1 (single isomer, unassigned) [Example 56]
(A) 0.3 µM
